- System: Staph. aureus 6538
metric_name: MIC (µg/mL)
Quick reminder: number only, in µg/mL, skip the unit.

Solved entries (count: 3):
{"columns": ["smiles_str", "measured"],
 "data": [
  ["CO[C@H]1C=C(C(=O)O)N2C(=O)[C@H]([C@@H](C)O)[C@@H]12", 0.5],
  ["CCO[C@H]1C(S[C@H]2CCN(C(C)=N)C2)=C(C(=O)O)N2C(=O)[C@H]([C@@H](C)O)[C@@H]12", 0.25],
  ["CCO[C@H]1C(S[C@H]2CCNC2)=C(C(=O)O)N2C(=O)[C@H]([C@@H](C)O)[C@@H]12", 0.25]
]}

Lab note: next molecule to report on.
Qu. Form: Entry = CO[C@H]1C(S[C@H]2CCN(C(C)=N)C2)=C(C(=O)O)N2C(=O)[C@H]([C@@H](C)O)[C@@H]12 | System = Staph. aureus 6538 | MIC = ____
Ans. 0.1

###

This listing pairs compounds with measured MIC.
- Tested on: Enterobacter cloacae 15M*
- test_method_notes: Minimal inhibitory concentration (MHK) on DST agar
- Format: cell-based
- measurement_setup: Enterobacter cloacae 15M* (ß-Lactamase producing)
Quick reminder: number only, in µg/mL, skip the unit.

Solved entries (count: 3):
{"columns": ["smiles_str", "unit_descriptor", "MIC"],
 "data": [
  ["CCO[C@H]1C(S[C@H]2CCN(C(C)=N)C2)=C(C(=O)O)N2C(=O)[C@H]([C@@H](C)O)[C@@H]12", "µg/mL", 4],
  ["CCO[C@H]1C(S[C@H]2CCNC2)=C(C(=O)O)N2C(=O)[C@H]([C@@H](C)O)[C@@H]12", "µg/mL", 1],
  ["CO[C@H]1C(S[C@H]2CCN(C(C)=N)C2)=C(C(=O)O)N2C(=O)[C@H]([C@@H](C)O)[C@@H]12", "µg/mL", 0.8]
]}

Qu. # input compound: CO[C@H]1C=C(C(=O)O)N2C(=O)[C@H]([C@@H](C)O)[C@@H]12 ; wanted: its MIC
Ans. 1

###

Measured MIC (E. coli 1346)

{"columns": ["compound", "MIC"],
 "data": [
  ["CO[C@H]1C=C(C(=O)O)N2C(=O)[C@H]([C@@H](C)O)[C@@H]12 [Verbindung A]", "0.5 µg/mL"],
  ["CCO[C@H]1C(S[C@H]2CCN(C(C)=N)C2)=C(C(=O)O)N2C(=O)[C@H]([C@@H](C)O)[C@@H]12 [Verbindung D]", "1 µg/mL"],
  ["CCO[C@H]1C(S[C@H]2CCNC2)=C(C(=O)O)N2C(=O)[C@H]([C@@H](C)O)[C@@H]12 [Verbindung C]", "0.5 µg/mL"]
]}

Lab note: next compound to report on.
Qu. # input compound: CO[C@H]1C(S[C@H]2CCN(C(C)=N)C2)=C(C(=O)O)N2C(=O)[C@H]([C@@H](C)O)[C@@H]12 [Verbindung B] ; wanted: its MIC
Ans. 0.4 µg/mL

###

Measured MIC (Prot. mirabilis 29H)
Please state the value followed by its unit.

Solved entries (count: 3):
{"columns": ["smiles_str", "MIC"],
 "data": [
  ["CCO[C@H]1C(S[C@H]2CCN(C(C)=N)C2)=C(C(=O)O)N2C(=O)[C@H]([C@@H](C)O)[C@@H]12", "32 mg/L"],
  ["CO[C@H]1C(S[C@H]2CCN(C(C)=N)C2)=C(C(=O)O)N2C(=O)[C@H]([C@@H](C)O)[C@@H]12", "25 mg/L"],
  ["CCO[C@H]1C(S[C@H]2CCNC2)=C(C(=O)O)N2C(=O)[C@H]([C@@H](C)O)[C@@H]12", "32 mg/L"]
]}

Lab note: next compound to report on.
Qu. # input compound: CO[C@H]1C=C(C(=O)O)N2C(=O)[C@H]([C@@H](C)O)[C@@H]12 ; wanted: its MIC
Ans. 8 mg/L

###

- Tested on: Enterobacter cloacae 908*
- test_method_notes: Minimal inhibitory concentration (MHK) on DST agar
- Assay type: cell-based
- measurement_setup: Enterobacter cloacae 908* (ß-Lactamase producing)
This listing pairs compounds with measured MIC.
Quick reminder: number only, in µg/mL, skip the unit.

Solved entries (count: 3):
{"columns": ["compound", "MIC [µg/mL]"],
 "data": [
  ["CCO[C@H]1C(S[C@H]2CCNC2)=C(C(=O)O)N2C(=O)[C@H]([C@@H](C)O)[C@@H]12 [Verbindung C]", 1],
  ["CO[C@H]1C(S[C@H]2CCN(C(C)=N)C2)=C(C(=O)O)N2C(=O)[C@H]([C@@H](C)O)[C@@H]12 [Verbindung B]", 0.8],
  ["CO[C@H]1C=C(C(=O)O)N2C(=O)[C@H]([C@@H](C)O)[C@@H]12 [Verbindung A]", 1]
]}

Lab note: next compound to report on.
Qu. # input compound: CCO[C@H]1C(S[C@H]2CCN(C(C)=N)C2)=C(C(=O)O)N2C(=O)[C@H]([C@@H](C)O)[C@@H]12 [Verbindung D] ; wanted: its MIC
Ans. 4

###

- Test system: Klebs. pneumoniae 418*
- test_method_notes: Minimal inhibitory concentration (MHK) on DST agar
- Assay type: cell-based
- measurement_setup: Klebsiella pneumoniae, Klebs. pneumoniae 418* (ß-Lactamase producing)
This listing pairs molecules with measured MIC.
Quick reminder: number only, in µg/mL, skip the unit.

Qu. # input molecule: CCO[C@H]1C(S[C@H]2CCN(C(C)=N)C2)=C(C(=O)O)N2C(=O)[C@H]([C@@H](C)O)[C@@H]12 ; wanted: its MIC
Ans. 2

Qu. Moving on to the next molecule: CO[C@H]1C=C(C(=O)O)N2C(=O)[C@H]([C@@H](C)O)[C@@H]12
Ans. 0.5

Qu. Moving on to the next molecule: CO[C@H]1C(S[C@H]2CCN(C(C)=N)C2)=C(C(=O)O)N2C(=O)[C@H]([C@@H](C)O)[C@@H]12
Ans. 0.4

Qu. Moving on to the next molecule: CCO[C@H]1C(S[C@H]2CCNC2)=C(C(=O)O)N2C(=O)[C@H]([C@@H](C)O)[C@@H]12
Ans. 2

###

- System: Prot. mirabilis 2117*
- test_method_notes: Minimal inhibitory concentration (MHK) on DST agar
- Type: cell-based
- measurement_setup: Proteus mirabilis, Prot. mirabilis 2117* (ß-Lactamase producing)
This listing pairs molecules with measured MIC.
Quick reminder: number only, in µg/mL, skip the unit.

{"columns": ["smiles_str", "measured_target", "unit_descriptor", "MIC"],
 "data": [
  ["CCO[C@H]1C(S[C@H]2CCN(C(C)=N)C2)=C(C(=O)O)N2C(=O)[C@H]([C@@H](C)O)[C@@H]12", "Prot. mirabilis 2117*", "µg/mL", 16]
]}

Qu. # input molecule: CCO[C@H]1C(S[C@H]2CCNC2)=C(C(=O)O)N2C(=O)[C@H]([C@@H](C)O)[C@@H]12 ; wanted: its MIC
Ans. 16

Qu. Moving on to the next molecule: CO[C@H]1C=C(C(=O)O)N2C(=O)[C@H]([C@@H](C)O)[C@@H]12
Ans. 4

Qu. Moving on to the next molecule: CO[C@H]1C(S[C@H]2CCN(C(C)=N)C2)=C(C(=O)O)N2C(=O)[C@H]([C@@H](C)O)[C@@H]12
Ans. 12.5

###

Measured MIC (Salmonella typh. BA)
Quick reminder: number only, in µg/mL, skip the unit.

Solved entries (count: 2):
{"columns": ["smiles_str", "unit_descriptor", "MIC"],
 "data": [
  ["CCO[C@H]1C(S[C@H]2CCN(C(C)=N)C2)=C(C(=O)O)N2C(=O)[C@H]([C@@H](C)O)[C@@H]12", "µg/mL", 2],
  ["CO[C@H]1C(S[C@H]2CCN(C(C)=N)C2)=C(C(=O)O)N2C(=O)[C@H]([C@@H](C)O)[C@@H]12", "µg/mL", 0.8]
]}

Qu. # input molecule: CO[C@H]1C=C(C(=O)O)N2C(=O)[C@H]([C@@H](C)O)[C@@H]12 ; wanted: its MIC
Ans. 1

Qu. Moving on to the next molecule: CCO[C@H]1C(S[C@H]2CCNC2)=C(C(=O)O)N2C(=O)[C@H]([C@@H](C)O)[C@@H]12
Ans. 0.5

###

- System: Pseudomonas aer. 1559E*
- test_method_notes: Minimal inhibitory concentration (MHK) on DST agar
- Assay type: cell-based
- measurement_setup: Pseudomonas aer. 1559E* (ß-Lactamase producing)
metric_name: MIC (µg/mL)
Quick reminder: number only, in µg/mL, skip the unit.

Qu. # input molecule: CCO[C@H]1C(S[C@H]2CCN(C(C)=N)C2)=C(C(=O)O)N2C(=O)[C@H]([C@@H](C)O)[C@@H]12 ; wanted: its MIC
Ans. 64

Qu. Moving on to the next molecule: CCO[C@H]1C(S[C@H]2CCNC2)=C(C(=O)O)N2C(=O)[C@H]([C@@H](C)O)[C@@H]12
Ans. 64

Qu. Moving on to the next molecule: CO[C@H]1C(S[C@H]2CCN(C(C)=N)C2)=C(C(=O)O)N2C(=O)[C@H]([C@@H](C)O)[C@@H]12
Ans. 25

FYI, the data here is from patent EP0170019A1.
